- SYSTEM NAME: HCV polymerase (NS5B) type 1b (Hepatitis C virus genotype 1b, UniProt P26663)
- Construct: a region encoding NS5B (J Virol 1991 March, 65(3), 1105-13, 544 amino acids after deletion of 47 amino acids on the C-terminal); 6xHis (C); made in house; host or cells: Escherichia coli
- Sequence (P26663 2420-2963): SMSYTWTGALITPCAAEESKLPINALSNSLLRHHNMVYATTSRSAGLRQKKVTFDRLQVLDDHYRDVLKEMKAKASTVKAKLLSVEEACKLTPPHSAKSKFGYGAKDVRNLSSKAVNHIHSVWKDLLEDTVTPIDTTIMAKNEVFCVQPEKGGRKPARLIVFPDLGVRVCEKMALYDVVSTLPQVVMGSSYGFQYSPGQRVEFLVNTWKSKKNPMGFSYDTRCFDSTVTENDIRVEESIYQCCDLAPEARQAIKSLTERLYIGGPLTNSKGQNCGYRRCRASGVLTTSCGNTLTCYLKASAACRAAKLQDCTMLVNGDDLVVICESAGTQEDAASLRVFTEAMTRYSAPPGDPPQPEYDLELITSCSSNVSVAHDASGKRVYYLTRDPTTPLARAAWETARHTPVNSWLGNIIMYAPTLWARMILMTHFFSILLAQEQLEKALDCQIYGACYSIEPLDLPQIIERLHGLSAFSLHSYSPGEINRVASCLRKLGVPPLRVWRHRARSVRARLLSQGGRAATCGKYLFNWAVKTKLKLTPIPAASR
- ASSAY REMARKS: Assay of enzyme (HCV polymerase) inhibitory activity, type 1b enzyme
- Type: biochemical, HCV BK strain (type 1b)
- EXPERIMENTAL CONDITIONS: HCV polymerase inhibitory activity (IC50), 1b, type 1b enzyme 0.5 μg/ml, 25° C., 60 min
pIC50: −log10 of the molar value.
READOUT: pIC50

compound="CCC(F)(F)c1ccc(CNC(=O)[C@H]2CN(C(=O)Nc3ccn(C)n3)CCN2S(=O)(=O)c2ccc(OC(F)(F)F)cc2)cc1 [Example 569]" observed_measurement="> 7.00"
compound="CCCc1ccc(CNC(=O)[C@H]2CN(C(=O)Cn3nnc(C)n3)CCN2S(=O)(=O)c2ccc(OC(F)(F)F)cc2)cc1 [Example 457]" observed_measurement="> 7.00"
compound="CCCc1ccc(CNC(=O)[C@H]2CN(c3ccc(C(=O)O)nn3)CCN2S(=O)(=O)c2ccc(OC(F)(F)F)cc2)cc1 [Example 417]" observed_measurement="> 7.00"
compound="CCCc1ccc(CNC(=O)[C@H]2CN(c3nc(C)c(CN4CCCC4)s3)CCN2S(=O)(=O)c2ccc(OC(F)(F)F)cc2)cc1 [Example 531]" observed_measurement="> 7.00"
compound="CCCc1ccc(CNC(=O)[C@H]2CN(c3cnc(CO)c(N)n3)CCN2S(=O)(=O)c2ccc(OC(F)(F)F)cc2)cc1 [Example 549]" observed_measurement="> 7.00"
compound="CCCc1ccc(CNC(=O)[C@H]2CN(c3ccc(N)cn3)CCN2S(=O)(=O)c2ccc(OC(F)(F)F)cc2)cc1 [Example 458]" observed_measurement="> 7.00"
compound="CC(=O)N1CCN(S(=O)(=O)c2ccc(OC(F)(F)F)c(CCCC(=O)O)c2)[C@@H](C(=O)NCc2ccc(C(C)C)cc2)C1 [Example 11]" observed_measurement="> 7.00"
compound="CC(=O)N1CCN(S(=O)(=O)c2ccc(Cl)cc2)C(C(=O)NCc2ccc(C(F)(F)F)cc2)C1 (centres unmarked) [Example 20]" observed_measurement="< 6.00"
compound="CC(C)c1ccc(S(=O)(=O)N2CCN(c3nc4c(s3)CCCC4)CC2C(=O)NCc2ccc(C(F)(F)F)cc2)cc1 (centres unmarked) [Example 156]" observed_measurement="< 6.00"
compound="CCC(F)(F)c1ccc(CNC(=O)[C@H]2CN(C(=O)Nc3nn[nH]n3)CCN2S(=O)(=O)c2ccc(OC(F)(F)F)cc2)cc1 [Example 566]" observed_measurement="> 7.00"
compound="CC(C)c1ccc(S(=O)(=O)N2CCN(C(=O)COc3ccccc3)CC2C(=O)NCc2ccc(C(F)(F)F)cc2)cc1 (centres unmarked) [Example 125]" observed_measurement="< 6.00"
compound="CC(=O)N1CCN(S(=O)(=O)c2ccc(C(C)C)cc2)C(C(=O)NCc2cccc(N(C)C)c2)C1 (centres unmarked) [Example 128]" observed_measurement="< 6.00"
compound="CC(=O)N1CCN(S(=O)(=O)c2ccc(C#N)cc2)C(C(=O)NCc2ccc(C(F)(F)F)cc2)C1 (centres unmarked) [Example 46]" observed_measurement="< 6.00"
compound="CCC(F)(F)c1ccc(CNC(=O)[C@H]2CN(c3cnc4c(n3)NS(=O)(=O)NC4)CCN2S(=O)(=O)c2ccc(OC(F)(F)F)cc2)cc1 [Example 650]" observed_measurement="> 7.00"
compound="CC(=O)N1CCN(S(=O)(=O)c2ccc(OC(F)(F)F)cc2)[C@@H](C(=O)NCC2(O)CCCCC2)C1 [Example 621]" observed_measurement="< 6.00"
compound="Cc1nc(N2CCN(S(=O)(=O)c3ccc(OC(F)(F)F)cc3)[C@@H](C(=O)NCc3ccc(C(C)C)cc3)C2)sc1C(=O)OC(C)(C)C [Example 320]" observed_measurement="< 6.00"
compound="CCC(F)(F)c1ccc(CNC(=O)[C@H]2CN(C(=O)Cc3cn(C)cn3)CCN2S(=O)(=O)c2ccc(OC(F)(F)F)cc2)cc1 [Example 498]" observed_measurement="6.00 to 7.00"
compound="CCCc1ccc(S(=O)(=O)N2CCN(C(C)=O)C[C@@H]2C(=O)NCc2ccc(CC)cc2)cc1 [Example 247]" observed_measurement="> 7.00"
compound="CCC(F)(F)c1ccc(CNC(=O)[C@H]2CN(c3cnc(-c4nnn[nH]4)cn3)CCN2S(=O)(=O)c2ccc(OC(F)(F)F)cc2)cc1 [Example 592]" observed_measurement="> 7.00"
compound="CC(=O)N1CCN(S(=O)(=O)c2ccc(-n3cc(Cl)cn3)s2)C(C(=O)NCc2ccc(C(F)(F)F)cc2)C1 (centres unmarked) [Example 62]" observed_measurement="< 6.00"
compound="CC(=O)N1CCN(S(=O)(=O)c2ccc(C(C)C)cc2)[C@@H](C(=O)NCCc2cccnc2)C1 [Example 397]" observed_measurement="< 6.00"
compound="O=C(NCc1ccc(C(F)(F)F)cc1)[C@H]1CN(c2cnc3cncnc3n2)CCN1S(=O)(=O)c1ccc(OC(F)(F)F)cc1 [Example 660]" observed_measurement="> 7.00"
compound="CCOc1ccc(S(=O)(=O)N2CCN(C(C)=O)C[C@@H]2C(=O)NCc2ccc(C(C)C)cc2)cc1 [Example 192]" observed_measurement="6.00 to 7.00"
compound="CC(C)c1ccc(CNC(=O)[C@H]2CN(c3cc(C(=O)O)nn3C)CCN2S(=O)(=O)c2ccc(C(F)(F)F)cc2)cc1 [Example 439]" observed_measurement="6.00 to 7.00"
compound="COC(=O)c1cnc(N2CCN(S(=O)(=O)c3ccc(C(F)(F)F)cc3)[C@@H](C(=O)NCc3ccc(C(C)C)cc3)C2)nc1C [Example 337]" observed_measurement="6.00 to 7.00"
compound="CCCc1ccc(CNC(=O)[C@H]2CN(c3cc(C)c(C(=O)OC)nn3)CCN2S(=O)(=O)c2ccc(OC(F)(F)F)cc2)cc1 [Example 486]" observed_measurement="> 7.00"
